Data origin, for the record: patent US20250361295A1

target.or.system: T1, human LILRA6 protein (human, UniProt Q6PI73 24-447, limits assumed)
T1 construct: protein for ELISA; construct not described; also called hLILRA6 protein
T1 sequence (Q6PI73 24-447 limits assumed): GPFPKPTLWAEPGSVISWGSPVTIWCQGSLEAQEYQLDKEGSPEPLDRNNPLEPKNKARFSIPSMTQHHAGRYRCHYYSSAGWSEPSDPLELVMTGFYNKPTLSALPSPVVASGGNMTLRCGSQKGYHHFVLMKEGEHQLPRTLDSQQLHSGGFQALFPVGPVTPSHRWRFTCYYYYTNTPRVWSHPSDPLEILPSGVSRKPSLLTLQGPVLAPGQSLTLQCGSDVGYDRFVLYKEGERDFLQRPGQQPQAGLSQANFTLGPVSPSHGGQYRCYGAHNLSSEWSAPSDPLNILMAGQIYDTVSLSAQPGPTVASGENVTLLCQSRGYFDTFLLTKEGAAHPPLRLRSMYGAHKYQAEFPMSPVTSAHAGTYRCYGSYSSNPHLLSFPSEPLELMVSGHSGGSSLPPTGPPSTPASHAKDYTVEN
method: ELISA, LILRA6 protein; also: test concentration or dose not given here
This section presents binders with their documented ELISA(OD450) values.

binder | ELISA(OD450)
ch2-H8-C9-F7-E2 (antibody, V domains shown) VH: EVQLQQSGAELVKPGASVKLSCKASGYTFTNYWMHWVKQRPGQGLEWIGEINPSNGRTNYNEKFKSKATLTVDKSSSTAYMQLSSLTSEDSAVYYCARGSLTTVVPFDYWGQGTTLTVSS VL: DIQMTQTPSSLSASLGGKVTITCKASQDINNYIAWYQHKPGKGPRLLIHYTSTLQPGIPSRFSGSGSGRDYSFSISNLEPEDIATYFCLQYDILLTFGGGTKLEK | 0.576
ch42-C8-A12-F3-D11 (antibody, V domains shown) VH: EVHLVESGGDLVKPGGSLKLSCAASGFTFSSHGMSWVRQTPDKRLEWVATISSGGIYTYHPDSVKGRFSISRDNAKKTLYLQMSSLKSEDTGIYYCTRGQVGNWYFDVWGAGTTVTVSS VL: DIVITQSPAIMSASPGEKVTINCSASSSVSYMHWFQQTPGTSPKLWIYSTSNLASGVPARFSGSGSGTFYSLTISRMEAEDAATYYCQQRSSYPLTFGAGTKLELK | 0.32
IO-202 (antibody, V domains shown) VH: EVQLLESGGGLVQPGGSLRLSCAASGIDFSNHYYMYWVRQAPGKGLEWIGSIFSGDSASTYYADSAKGRFTISRDNSKNTLYLQMNSLRAEDTAVYYCARGMSTNDWASDLWGQGTLVTVSS VL: DIQMTQSPSSLSASVGDRVTITCQASESINSIYLAWYQQKPGKAPKLLIYRASTLASGVPSRFSGSGSGTDFTLTISSLQPEDFATYYCQQSYDWGDVENTFGGGTKVEIK | 0.157
